Compiled record: IC50 values for PIK3CB (Human) (UniProt P42338) across several sources.

>>> observed_value("C[C@H](NC(=O)c1c(N)nn2cccnc12)c1cc2cccc(-c3ccn[nH]3)c2c(=O)n1-c1ccccc1")
"> 10 µM"

Your task in this section: give IC50 for each listed record.
1. C[C@H](NC(=O)c1nc(-c2cccc(NS(=O)(=O)C3CC3)c2)cnc1N)c1cc2cccc(Cl)c2c(=O)n1-c1ccccc1
2. C[C@H](Nc1ncnc2[nH]cnc12)c1cc2cccc(-c3cnn(C)c3)c2c(CCN2CCOCC2)n1
3. C[C@H](Nc1ccc2c(c1)OCCn1cc(N3C(=O)CN(C)C[C@H]3C(F)F)nc1-2)C(N)=O

1: 0.1 to 1 µM; 2: > 10 µM; 3: 3.18 µM

---

Here's a roundup of IC50 values tested on UniProtKB P42338, taken from various published works.

>>> observed_value("Nc1nsc2c(-c3ccc4ncc(C(=O)N5CCOCC5)n4c3)cccc12")
"> 10000 nM"
>>> observed_value("COCCNC(=O)C(C)Cn1cnc2ccc(-c3cnc(OC)c(NS(=O)(=O)c4ccc(F)cc4Cl)c3)cc2c1=O (single isomer, unassigned)")
"1120 nM"
>>> observed_value("C[C@H]1COCCN1C1CN(c2cnc3ccc(-c4ccc5oc(N)nc5c4)nc3n2)C1")
"> 10000 nM"
>>> observed_value("C[C@H](Nc1ncnc2cccnc12)c1cc2cccc(Cl)c2c(OCCN2CCCC2)n1")
"< 10000 nM"
>>> observed_value("C[C@H]1CN(c2cnc3ccc(-c4ccc5nc(N)sc5c4)cc3n2)CCN1")
"< 1000 nM"

Please give IC50, item by item, for the list that follows.
1. COc1ccc2c(N3CCOc4ccc(-c5cnc6nc(C)[nH]c6c5)cc4C3)nc(CN(C)C)nc2c1
2. COc1ncc(-c2ccc3ncc(C(=O)N4CCOCC4)n3c2)cc1NS(=O)(=O)c1cccc(F)c1
3. C[C@H](NC(=O)c1c(N)nn2cccnc12)c1cc2cccc(C#CCN)c2c(=O)n1-c1ccccc1
4. COc1cc(-c2cccc3cc([C@H](C)NC(=O)c4c(N)nn5cccnc45)n(C)c(=O)c23)ccn1
5. C[C@@H](O)CC(=O)N1CCC(c2nc(-c3cnc(N)c(-c4nnc(C(C)(C)C)o4)n3)n(C)n2)CC1
6. CCN1CCN(C2CN(c3cnc4ccc(-c5ccc6oc(N)nc6c5)nc4c3)C2)CC1
7. CC(C)(N)C(=O)N1CCN(c2cnc3ccc(-c4ccc5oc(N)nc5c4)cc3n2)CC1
8. COc1ncc(-c2ccc3ncn(C4CCN(C)CC4)c(=O)c3c2)cc1NS(C)(=O)=O

["1310 nM", "< 1000 nM", "1000 to 10000 nM", "> 10000 nM", "2910 nM", "< 1000 nM", "< 1000 nM", "< 1000 nM"]

Hi there! I need IC50 for each item below, if you can.
1. C[C@H](NC(=O)c1nccnc1N)c1cc2cccc(-c3cc[nH]n3)c2c(=O)n1-c1ccccc1
2. Nc1nc2cc(-c3ccc4ncc(C(=O)N5CCS(=O)(=O)CC5)n4c3)ccc2o1
3. Cn1ncc2c(-c3cccc(CO)c3)nc(N3CCOCC3)nc21
4. Clc1cccc2c(-n3c(C4COC4)nc4c(-c5nnc[nH]5)cc(-c5ccncc5)cc43)ccnc12

1. > 10000 nM
2. > 10000 nM
3. 100 to 10000 nM
4. 250 nM

For every listed record, write down its IC50.
1. Nc1cc(-c2cc(-c3nnc[nH]3)c3nc(CC4CC4)n(-c4ccnc5c(Cl)cccc45)c3c2)ccn1
2. Cc1cccc2cc(Cn3nc(C4=CCOCC4)c4c(N)ncnc43)n(-c3ccccc3)c(=O)c12

["8 nM", "> 10000 nM"]

Hello, I would appreciate it if you could give IC50 for each entry below.
1. Cc1nnc(-c2cc(-c3ccncc3)cc3c2nc(C)n3-c2ccnc3c(F)ccc(F)c23)[nH]1
2. COC(=O)N1CCN(c2cnc3ccc(-c4ccc5oc(N)nc5c4)cc3n2)CC1
3. CN1CCN(CCNC(=O)c2cnc3ccc(-c4ccc5oc(N)nc5c4)cn23)CC1
4. Cc1ccccc1-n1c(Cn2nc(Br)c3c(N)ncnc32)nc2nccc(C)c2c1=O
5. CN1CCC(n2cnc3ccc(-c4cnc(Cl)c(NS(C)(=O)=O)c4)cc3c2=O)CC1
6. Nc1cn2cc(-c3ccc4oc(N)nc4c3)ccc2n1
7. Nc1nc2cc(-c3ccc4ncc(C(=O)NCCCN5CCOCC5)n4c3)ccc2o1

1. 110 nM
2. < 1000 nM
3. < 1000 nM
4. > 10000 nM
5. < 10000 nM
6. < 10000 nM
7. < 1000 nM

Report IC50 for every entry below.
1. Nc1nc2cc(-c3ccc4nnc(-c5ccncc5)n4c3)ccc2o1
2. Nc1nc2cc(-c3ccc4nnc(C(=O)N5CCOCC5)n4c3)ccc2o1
3. CNC(=O)CCCn1cnc2ccc(-c3cnc(C)c(NS(=O)(=O)c4ccc(F)cc4Cl)c3)cc2c1=O
4. Cc1cccc2cc([C@H](C)Nc3nc(Cl)nc4[nH]cnc34)n(-c3ccccc3)c(=O)c12
5. Cc1cccc2cc(C(C)Nc3ncnc4[nH]cnc34)n(-c3cc(F)cc(F)c3)c(=O)c12 (stereo not shown)
6. COc1ncc(-c2cccc3cc([C@H](C)Nc4ncnc5scnc45)n(-c4ccccc4)c(=O)c23)s1
7. CN1CCC(NC(=O)c2cnc3ccc(-c4ccc5oc(N)nc5c4)cn23)CC1
8. Nc1nccc(-c2cc(-c3nnc[nH]3)c3nc(CC4CC4)n(-c4ccnc5c(F)ccc(F)c45)c3c2)c1F

["< 1000 nM", "> 10000 nM", "216 nM", "< 10000 nM", "> 10000 nM", "1000 to 10000 nM", "< 100 nM", "7 nM"]
